# target-desc: Orexin/Hypocretin receptor type 1 (Homo sapiens) (UniProt O43613)
# Sequence (O43613 whole entry, looked up): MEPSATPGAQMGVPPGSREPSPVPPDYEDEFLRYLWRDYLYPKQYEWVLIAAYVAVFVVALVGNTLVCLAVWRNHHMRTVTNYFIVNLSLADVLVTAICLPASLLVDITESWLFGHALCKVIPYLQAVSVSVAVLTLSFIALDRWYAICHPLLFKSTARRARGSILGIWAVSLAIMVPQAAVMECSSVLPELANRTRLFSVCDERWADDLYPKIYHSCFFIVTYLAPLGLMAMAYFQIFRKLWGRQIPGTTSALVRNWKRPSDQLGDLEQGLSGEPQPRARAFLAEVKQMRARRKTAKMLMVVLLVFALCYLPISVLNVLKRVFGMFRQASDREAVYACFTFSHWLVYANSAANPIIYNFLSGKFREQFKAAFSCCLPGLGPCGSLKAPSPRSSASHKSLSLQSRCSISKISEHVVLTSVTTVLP
# assay-overview: antagonists of human orexin 1 receptor (OX1R) (AID 485270)
# condition-summary: OX1R-expressing cells, FRET antagonist read-out; at 6.6 µM
The campaign covered roughly 330,000 compounds. About 5,800 (1.8%) were called active. Rule as the data show it: active = inhibition mostly above about 38% (no sharp cut-off); inactive = mostly below about 40%. The sample holds actives, similar compounds and a random draw of the others, so the mix is not that of the screen.
Classes used: active, inactive

{"smiles-text": "COc1ccc(C(=O)O)cc1S(=O)(=O)NC1CCN(Cc2ccccc2)CC1", "qualitative-label": "inactive"}
{"smiles-text": "CC(=O)Oc1ccc2c(c1)C(=O)c1ccccc1C2=O", "qualitative-label": "active"}
{"smiles-text": "Cn1cnnc1Sc1ccc(S(C)(=O)=O)cc1[N+](=O)[O-]", "qualitative-label": "active"}
{"smiles-text": "CCOc1ccccc1NC(=O)c1cccnc1", "qualitative-label": "inactive"}
{"smiles-text": "COc1ccc(Br)cc1CN(C)CC(=O)Nc1cc([N+](=O)[O-])ccc1OC", "qualitative-label": "inactive"}
{"smiles-text": "CC(=O)O[C@H]1c2ccccc2-c2ccccc2[C@@H]1OC(C)=O", "qualitative-label": "inactive"}
{"smiles-text": "CC(C)(C)n1cnnc1Sc1ccc([N+](=O)[O-])cn1", "qualitative-label": "inactive"}
{"smiles-text": "Cc1ccc(S(=O)(=O)NCC(=O)NNC(=O)c2ccc(Br)cc2)cc1C", "qualitative-label": "inactive"}
{"smiles-text": "C=CC[C@@H](CC(=O)NCCO)C(=O)N[C@H](C)COC(=O)[C@@H](CC=C)CC(=O)OC(C)(C)C", "qualitative-label": "inactive"}
{"smiles-text": "CCn1c(O)c2ccc(C(=O)N=NC(=O)c3cccnc3)cc2c1O", "qualitative-label": "active"}
{"smiles-text": "Nc1cccnc1Sc1ccccc1", "qualitative-label": "inactive"}
